Tested on: CHO cells
Experiment: Hypoxic phototoxicity (CoCl2 induced hypoxia)
Assay type: cell-based, Chinese Hamster
Conditions: Cricetulus griseus, 300 μM CoCl2 4 h, 470 nm LED, maximum 1 μM tested, read-out: hypoxic IC50 (light)
quantityKind: IC50

The molecule listed as CC1=C(c2ccc3c4cccc5cccc(c6cccc2c63)c54)C(C)=[N+]2C1=C(c1c(C)cc(C)cc1C)c1c(C)c(I)c(C)n1[B-]2(F)F [MB2PI] has a reported IC50 of > 1 µM
